Just for reference, patent US20250171562A1 is where these values come from.

tested-target: mixture of three Der p 2 specific recombinant human IgE clones H10, H12, P4E (human) (UniProt P01854)
Sequence (P01854 other isoform, or with tags, fused parts or gaps): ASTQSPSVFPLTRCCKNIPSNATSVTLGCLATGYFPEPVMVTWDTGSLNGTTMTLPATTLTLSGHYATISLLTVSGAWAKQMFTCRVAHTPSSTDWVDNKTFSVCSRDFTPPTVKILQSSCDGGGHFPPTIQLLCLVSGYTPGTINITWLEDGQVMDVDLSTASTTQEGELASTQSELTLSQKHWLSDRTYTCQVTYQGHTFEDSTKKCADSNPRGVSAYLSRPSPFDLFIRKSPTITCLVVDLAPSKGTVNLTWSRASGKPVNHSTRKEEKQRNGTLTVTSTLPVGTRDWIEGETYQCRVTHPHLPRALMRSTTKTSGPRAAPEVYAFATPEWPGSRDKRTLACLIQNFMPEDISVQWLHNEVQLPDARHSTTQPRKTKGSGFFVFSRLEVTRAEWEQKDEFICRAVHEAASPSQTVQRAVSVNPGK
experiment-summary: RBL-SX38 IgE displacement, FACS
Reported values of Max effect/effect 1 µM for individual entries
Numbers only; they are read as %.

{"binder": "sdAb D2 (VHH) VHH: DVQLQESGGGLVEAGGSLRLSCVASGRTFSGWSMGWFRQAPGKEREFVAAISWVGSWIGGTVYSNSVKGRFTISRDNARTTVYLQMNSLKPEDTAVYFCAAANSETPRIFASEYDYWGQGTQVTVS", "Max effect/effect 1 µM / %": 22}

Ask: Looking for the measured Max effect/effect 1 µM of D2A1(G4S)4 (bispecific antibody) DVQLQESGGGLVEAGGSLRLSCVASGRTFSGWSMGWFRQAPGKEREFVAAISWVGSWIGGTVYSNSVKGRFTISRDNARTTVYLQMNSLKPEDTAVYFCAAANSETPRIFASEYDYWGQGTQVTVSGGGGSGGGGSGGGGSGGGGSEVQLLESGGGLVQPGGSLRLSCAASGFTFGNYDMAWVRQAPGKRPEWVSSIDTGGDITHYADSVKGRFTISRDNAKNTLYLQMNSLRPEDTAVYWCATDEEYALGPNEFDYYGQGTLVTVS , can you help?
Result: 83

Ask: Look at this binder and give its reported Max effect/effect 1 µM. B2A1(G4S)4 (bispecific antibody) QVQLVESGGGLVQAGGSLRLSCAVFGSTFSNNVADWYRQAPGKQRELVARISASGATREYGDSVKGRFTISRDDAKNTMYLQMNNLKPEDTAVYRCHKIEWEDLSRKDYWGQGTQVTVSGGGGSGGGGSGGGGSGGGGSEVQLLESGGGLVQPGGSLRLSCAASGFTFGNYDMAWVRQAPGKRPEWVSSIDTGGDITHYADSVKGRFTISRDNAKNTLYLQMNSLRPEDTAVYWCATDEEYALGPNEFDYYGQGTLVTVS
Result: 92
